# Assay Details: Drug metabolism in human liver microsomes assessed as disappearance of parent compound at 5 uM preincubated for 3 mins followed UDPG addition and measured after 120 mins by UPLC-MS/MS analysis
# Assay type: ADME, microsome
# Details: read-out: Drug metabolism
Property Label: metabolised at 2 h, 5 µM (%)
The reply should contain only the number, in %.

query: Given the entry Cc1ccn2nc([C@H](C)Nc3ncnc4[nH]cc(-c5cnn(C)c5)c34)n(-c3ccccc3)c(=O)c12 , report its measured metabolised at 2 h, 5 µM.
result: 91

query: // returns reported metabolised at 2 h, 5 µM for input Cc1ccn2nc([C@H](C)Nc3ncnc(N)c3-c3ccc4cc[nH]c4c3)n(-c3ccccc3)c(=O)c12
result: 9.6

query: So what does the record say about metabolised at 2 h, 5 µM for Cc1ccn2nc([C@H](C)Nc3ncnc(N)c3-c3cc(O)cc(F)c3)n(-c3ccccc3)c(=O)c12 ?
result: 74

query: For the molecule Cc1ccn2nc([C@H](C)Nc3ncnc(N)c3-c3cnc(N)nc3)n(-c3ccccc3)c(=O)c12 , what metabolised at 2 h, 5 µM is on record?
result: 6

query: metabolised at 2 h, 5 µM for Cc1ccn2nc([C@H](C)Nc3ncnc(N)c3-c3ccc(O)c(F)c3)n(-c3ccccc3)c(=O)c12 ?
result: 97

query: Which metabolised at 2 h, 5 µM value belongs to COc1cccc(-c2c[nH]c3ncnc(N[C@@H](C)c4nn5ccc(C)c5c(=O)n4-c4ccccc4)c23)c1O ?
result: 90

query: Dear colleague, I am looking for the recorded metabolised at 2 h, 5 µM of the following molecule: Cc1ccn2nc([C@H](C)Nc3ncnc(N)c3-c3cc(O)cc(Cl)c3)n(-c3ccccc3)c(=O)c12
result: 97

query: So what's the measured metabolised at 2 h, 5 µM for this one? Cc1ccn2nc([C@H](C)Nc3ncnc4[nH]cc(-c5cc(O)cc(NS(C)(=O)=O)c5)c34)n(-c3ccccc3)c(=O)c12
result: 94

query: For Cc1ccn2nc([C@H](C)Nc3ncnc(N)c3-c3ccc(O)cc3)n(-c3ccccc3)c(=O)c12 , what is its reported metabolised at 2 h, 5 µM?
result: 76

query: Item Cc1ccn2nc([C@H](C)Nc3ncnc4[nH]cc(Sc5cccc(O)c5)c34)n(-c3ccccc3)c(=O)c12 has what recorded metabolised at 2 h, 5 µM?
result: 84

query: Consider the molecule Cc1ccn2nc([C@H](C)Nc3ncnc4[nH]cc(-c5cc(NS(C)(=O)=O)cc6[nH]ccc56)c34)n(-c3ccccc3)c(=O)c12 and give its measured metabolised at 2 h, 5 µM.
result: 30

* * *

# Target Entity: PI3-kinase p110-delta/p85-alpha (Homo sapiens)
# Sequence (P27986 whole entry): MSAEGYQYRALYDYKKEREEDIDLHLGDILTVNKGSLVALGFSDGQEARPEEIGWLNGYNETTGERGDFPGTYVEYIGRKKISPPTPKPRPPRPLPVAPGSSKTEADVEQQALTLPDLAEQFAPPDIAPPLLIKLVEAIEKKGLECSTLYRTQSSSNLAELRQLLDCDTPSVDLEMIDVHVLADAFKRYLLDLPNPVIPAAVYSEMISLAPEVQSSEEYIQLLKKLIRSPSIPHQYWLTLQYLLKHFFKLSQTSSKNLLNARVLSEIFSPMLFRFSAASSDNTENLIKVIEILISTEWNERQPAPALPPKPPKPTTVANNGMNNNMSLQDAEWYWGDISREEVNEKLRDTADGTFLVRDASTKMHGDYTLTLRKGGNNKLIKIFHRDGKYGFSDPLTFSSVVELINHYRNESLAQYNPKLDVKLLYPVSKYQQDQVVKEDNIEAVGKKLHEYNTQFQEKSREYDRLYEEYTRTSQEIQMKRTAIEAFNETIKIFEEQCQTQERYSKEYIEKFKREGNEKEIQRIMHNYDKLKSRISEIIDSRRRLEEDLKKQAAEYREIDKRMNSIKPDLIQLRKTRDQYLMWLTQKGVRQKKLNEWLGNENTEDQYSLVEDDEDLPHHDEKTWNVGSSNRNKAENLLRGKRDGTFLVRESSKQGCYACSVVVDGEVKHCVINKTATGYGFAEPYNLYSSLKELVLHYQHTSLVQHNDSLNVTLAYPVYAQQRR
# Sequence (O00329 whole entry): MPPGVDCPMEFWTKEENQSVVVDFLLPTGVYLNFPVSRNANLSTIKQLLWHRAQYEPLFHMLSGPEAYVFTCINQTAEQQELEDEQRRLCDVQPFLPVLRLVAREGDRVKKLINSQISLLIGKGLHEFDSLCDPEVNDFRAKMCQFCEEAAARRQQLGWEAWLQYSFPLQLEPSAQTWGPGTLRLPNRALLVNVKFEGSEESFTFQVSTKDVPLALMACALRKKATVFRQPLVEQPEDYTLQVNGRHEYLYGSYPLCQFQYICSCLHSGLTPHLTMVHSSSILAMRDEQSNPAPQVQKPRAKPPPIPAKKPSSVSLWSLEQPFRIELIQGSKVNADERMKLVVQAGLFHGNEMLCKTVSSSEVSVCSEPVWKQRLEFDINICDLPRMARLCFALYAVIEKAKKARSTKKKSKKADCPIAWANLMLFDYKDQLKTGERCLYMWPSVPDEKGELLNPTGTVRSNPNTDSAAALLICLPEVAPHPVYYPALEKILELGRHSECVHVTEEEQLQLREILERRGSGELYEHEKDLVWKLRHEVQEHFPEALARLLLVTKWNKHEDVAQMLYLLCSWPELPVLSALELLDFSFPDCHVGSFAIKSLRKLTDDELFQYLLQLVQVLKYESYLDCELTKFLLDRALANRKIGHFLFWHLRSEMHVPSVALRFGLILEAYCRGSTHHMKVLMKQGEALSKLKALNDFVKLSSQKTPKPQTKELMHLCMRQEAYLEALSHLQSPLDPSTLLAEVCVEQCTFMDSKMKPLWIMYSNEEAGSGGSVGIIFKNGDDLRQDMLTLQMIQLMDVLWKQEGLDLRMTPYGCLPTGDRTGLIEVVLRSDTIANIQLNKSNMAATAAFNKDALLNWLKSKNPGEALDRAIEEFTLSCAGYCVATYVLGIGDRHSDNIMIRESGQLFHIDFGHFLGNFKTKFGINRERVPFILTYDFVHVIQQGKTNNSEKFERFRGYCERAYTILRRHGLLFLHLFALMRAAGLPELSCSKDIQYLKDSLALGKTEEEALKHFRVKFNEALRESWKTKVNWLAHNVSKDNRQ
pIC50: −log10 of the molar value.
Would you mind labelling by pIC50? At or over 9 is 1, under is 0.

query: Item Cc1ccn2nc([C@H](C)Nc3ncnc(N)c3-c3cc(O)cc(C(F)(F)F)c3)n(-c3ccccc3)c(=O)c12 with pIC50 of 9 or above?
result: 1

query: Identify whether the reported pIC50 of the following compound is 9 or greater: COc1cc(-c2c[nH]c3ncnc(N[C@@H](C)c4nn5ccc(C)c5c(=O)n4-c4ccccc4)c23)ccc1O
result: 1

query: In plain terms: is recorded pIC50 at least 9 for Cc1ccn2nc([C@H](C)Nc3ncnc(N)c3-c3cc(O)cc(Cl)c3)n(-c3ccccc3)c(=O)c12 ?
result: 1

query: Check this compound for pIC50 at or above 9: Cc1ccn2nc([C@H](C)Nc3ncnc4[nH]cc(-c5cccc(NS(C)(=O)=O)c5)c34)n(-c3ccccc3)c(=O)c12
result: 1

query: pIC50 >= 9 for Cc1ccn2nc([C@H](C)Nc3ncnc4[nH]cc(-c5ccccc5O)c34)n(-c3ccccc3)c(=O)c12 ?
result: 0

query: Given Cc1ccn2nc([C@H](C)Nc3ncnc(N)c3-c3ccc(O)cc3)n(-c3ccccc3)c(=O)c12 , state whether its pIC50 is at least 9.
result: 0

query: Please tell me: is the compound Cc1ccn2nc([C@H](C)Nc3ncnc(N)c3-c3ccc4oc(=O)[nH]c4c3)n(-c3ccccc3)c(=O)c12 at or over 9 in terms of pIC50?
result: 0

query: For this compound, is measured pIC50 9 or higher? Cc1ccn2nc([C@H](C)Nc3ncnc(N)c3-c3ccc(O)c(F)c3)n(-c3ccccc3)c(=O)c12
result: 1

query: Item Cc1ccn2nc([C@H](C)Nc3ncnc(N)c3C(=O)Nc3cccc(O)c3)n(-c3ccccc3)c(=O)c12 with pIC50 of 9 or above?
result: 1

query: Identify whether the reported pIC50 of the following compound is 9 or greater: Cc1ccn2nc([C@H](C)Nc3ncnc4[nH]cc(-c5cn[nH]c5)c34)n(-c3ccccc3)c(=O)c12
result: 1

query: Decide: pIC50 of COc1cccc(-c2c[nH]c3ncnc(N[C@@H](C)c4nn5ccc(C)c5c(=O)n4-c4ccccc4)c23)c1O >= 9?
result: 1

query: Hello, I need to know if Cc1ccn2nc([C@H](C)Nc3ncnc4[nH]cc(C(=O)Nc5cccc(O)c5)c34)n(-c3ccccc3)c(=O)c12 has measured pIC50 not below 9. Thanks!
result: 0

query: Is reported pIC50 greater than or equal to 9 here: Cc1ccn2nc([C@H](C)Nc3ncnc4[nH]cc(-c5cnn(C)c5)c34)n(-c3ccccc3)c(=O)c12
result: 1

query: Dear colleague, could you confirm whether Cc1ccn2nc([C@H](C)Nc3ncnc4[nH]cc(-c5cccc6[nH]ccc56)c34)n(-c3ccccc3)c(=O)c12 has pIC50 at or above 9?
result: 1

query: Assess whether reported pIC50 for Cc1ccn2nc([C@H](C)Nc3ncnc(N)c3-c3cccc(NS(C)(=O)=O)c3)n(-c3ccccc3)c(=O)c12 sits at 9 or higher.
result: 1

query: Please tell me: is the compound Cc1ccn2nc([C@H](C)Nc3ncnc(N)c3Cc3cccc(O)c3)n(-c3ccccc3)c(=O)c12 at or over 9 in terms of pIC50?
result: 0
